Tested on: Streptococcus pneumoniae 1/1
assay_comment: MIC against Streptococcus pneumoniae 1/1
Type: cell-based
assay_conditions: Table 2; Streptococcus pneumoniae 1/1, trimethoprim- and penicillin-resistant, serotype 6; clinical isolate; read-out: MIC Sp1/1
Each item that follows carries a reported MIC.
Give the quantity in µg/mL, number only.

Here are 2 compounds together with their reported answers.
INSERT INTO measurements (compound, numeric_readout) VALUES
  ('CCOc1cc(Cc2cnc(N)nc2N)cc(OS(=O)(=O)CC(C)(C)C)c1-c1ccc(NCCO)cc1 [Example 37-d]', 0.25),
  ('CCOc1cc(Cc2cnc(N)nc2N)cc(OCC)c1-c1ccc2c(c1)OCO2 [Example 02-r]', 4);

Looking up CCOc1cc(Cc2cnc(N)nc2N)cc(OCCc2ccccn2)c1-c1ccc(O)cc1 [Example 08-g] , I see its MIC listed as 4

Value of measured MIC for the entry CCOc1cc(Cc2cnc(N)nc2N)cc(OCC)c1-c1ccc(O)c(C)c1 [Example 02-s] : 8

The compound listed as CCOc1cc(Cc2cnc(N)nc2N)cc(OCC)c1-c1ccc(CN(C)CCF)cc1 [Example 04-ac] shows MIC equal to 4
